The origin of these recorded values is the supplement of paper PMC8728848.

This listing pairs binders with measured glycan array binding signal (z-score).
biological target: Gal(b1-4)GlcNAc(b1-3)[Fuc(a1-3)GlcNAc(b1-6)]Gal(b1-4)Glc; experiment: glycan array binding signal (z-score within array); higher = stronger binding; conditions: glycan notation: IUPAC condensed, linker removed
The full list was thinned out, with the strongest signals kept by preference.
Give the figure only, with no unit attached.

rCnSL-proA (Clitocybe nebularis) (protein) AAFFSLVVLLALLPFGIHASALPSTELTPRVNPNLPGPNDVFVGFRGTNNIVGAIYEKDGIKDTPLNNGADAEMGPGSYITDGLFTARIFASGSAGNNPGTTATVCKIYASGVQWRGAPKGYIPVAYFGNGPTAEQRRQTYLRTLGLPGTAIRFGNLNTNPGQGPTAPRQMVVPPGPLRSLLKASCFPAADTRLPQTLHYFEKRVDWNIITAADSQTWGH : 0.661
SP15308F-bth-333-19-333 (Bacteroides thetaiotaomicron) (protein) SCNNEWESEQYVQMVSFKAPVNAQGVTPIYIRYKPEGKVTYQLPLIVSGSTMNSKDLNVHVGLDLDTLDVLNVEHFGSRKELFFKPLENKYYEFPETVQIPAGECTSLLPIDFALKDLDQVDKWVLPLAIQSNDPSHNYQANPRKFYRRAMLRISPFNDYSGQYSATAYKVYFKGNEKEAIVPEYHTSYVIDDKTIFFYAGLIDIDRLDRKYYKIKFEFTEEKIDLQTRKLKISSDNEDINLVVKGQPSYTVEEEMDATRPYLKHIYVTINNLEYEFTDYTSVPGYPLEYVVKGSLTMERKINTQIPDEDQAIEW : -0.005

Data request: Report measured glycan array binding signal (z-score); entry is CC1G-11630 (Coprinopsis cinerea), A8P462 (protein) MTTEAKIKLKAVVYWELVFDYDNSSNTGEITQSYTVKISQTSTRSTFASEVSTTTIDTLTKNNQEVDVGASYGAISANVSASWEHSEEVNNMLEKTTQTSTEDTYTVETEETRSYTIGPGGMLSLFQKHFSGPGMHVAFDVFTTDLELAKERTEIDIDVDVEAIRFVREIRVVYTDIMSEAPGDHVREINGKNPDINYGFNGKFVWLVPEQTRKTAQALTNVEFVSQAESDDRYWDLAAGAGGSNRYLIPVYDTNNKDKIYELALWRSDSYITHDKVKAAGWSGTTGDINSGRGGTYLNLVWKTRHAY
Data returned: -0.538
